Tested on: Echinochloa crus-galli (ECHCG)
method description: Post-emergence herbicidal action, greenhouse pot trial
Format: in vivo
test settings: Echinochloa crus-galli, 504 h, 80 g/ha, visual rating after about 3 weeks, read-out: Post-emergence effect at 80 g/ha against ECHCG in %
quantity measured: pest or weed control at 80 g/ha (%)
Give the quantity in %, number only.

Param item = COC(=O)C(Oc1nn(-c2ccccc2F)c(-c2ccc(F)nc2)c1Br)SC (stereo not shown) ; retrieve measured pest or weed control at 80 g/ha.
80

# repeat for CCOC(=O)C(Oc1nn(-c2ncccc2F)c(-c2ccc(F)nc2)c1Br)SC (stereo not shown) [Example I-13]
80

# repeat for CSC(Oc1nn(-c2ncccc2F)c(-c2ccc(F)nc2)c1Br)C(=O)O (single isomer, unassigned) [Example I-25]
80

* * *

System: Abutilon theophrasti (ABUTH)
method description: Post-emergence herbicidal action, greenhouse pot trial
Type: in vivo
test settings: Abutilon theophrasti, 504 h, 320 g/ha, visual rating after about 3 weeks, read-out: Post-emergence effect at 320 g/ha against ABUTH in %
quantity measured: pest or weed control at 320 g/ha (%)
Give the quantity in %, number only.

Examples with answers:
>>> df
                                   compound                 quantity_measured  number
0  COC(=O)C(Oc1nn(-c2ncccc2F)c(-c2ccc(F)nc2)c1C1CC1)SC (centres unmarked) [Example I-59]  pest or weed control at 320 g/ha      90
1  COC(=O)C(Oc1nn(-c2ncccc2F)c(-c2ccc(F)nc2)c1Cl)SC (centres unmarked) [Example I-56]  pest or weed control at 320 g/ha      90
2  COC(=O)C(Oc1nn(-c2ncccc2F)c(-c2cncc(F)c2)c1C1CC1)SC (centres unmarked) [Example I-66]  pest or weed control at 320 g/ha      90
3  CCOC(=O)C(Oc1nn(-c2ncccc2F)c(-c2cncc(F)c2)c1Br)SC (centres unmarked) [Example I-39]  pest or weed control at 320 g/ha      90
4  CSC(Oc1nn(-c2cnccn2)c(-c2ccc(F)nc2)c1Br)C(=O)O (centres unmarked) [Example I-36]  pest or weed control at 320 g/ha      80

Param item = CCOC(=O)C(Oc1nn(-c2ncccc2F)c(-c2ccc(F)nc2)c1C1CC1)SC (centres unmarked) [Example I-20] ; retrieve measured pest or weed control at 320 g/ha.
90

# repeat for CCOC(=O)C(Oc1nn(-c2ncccc2F)c(-c2ccc(F)nc2)c1Cl)SC (centres unmarked) [Example I-19]
90

* * *

System: Matricaria inodora (MATIN)
method description: Post-emergence herbicidal action, greenhouse pot trial
Type: in vivo
test settings: Tripleurospermum inodorum, 504 h, 320 g/ha, visual rating after about 3 weeks, read-out: Post-emergence effect at 320 g/ha against MATIN in %
quantity measured: pest or weed control at 320 g/ha (%)
Give the quantity in %, number only.

Examples with answers:
>>> print(df.to_string())
                                   compound                 quantity_measured  number
0  COC(=O)C(Oc1nn(-c2ccccc2F)c(-c2ccc(F)nc2)c1I)SC (centres unmarked) [Example I-52]  pest or weed control at 320 g/ha      80
1  CCOC(=O)C(Oc1nn(-c2ncccc2F)c(-c2cncc(F)c2)c1Br)SC (centres unmarked) [Example I-39]  pest or weed control at 320 g/ha      90
2  CSC(Oc1nn(-c2ncccc2F)c(-c2ccc(F)nc2)c1C(F)(F)F)C(=O)O (centres unmarked) [Example I-38]  pest or weed control at 320 g/ha      80
3  CSC(Oc1nn(-c2cc(F)ccc2F)c(-c2cncc(F)c2)c1Br)C(=O)O (centres unmarked) [Example I-06]  pest or weed control at 320 g/ha      90
4  COC(=O)C(Oc1nn(-c2ncccc2F)c(-c2cncc(F)c2)c1C1CC1)SC (centres unmarked) [Example I-66]  pest or weed control at 320 g/ha      90
5  CCOC(=O)C(Oc1nn(-c2cc(F)ccc2F)c(-c2cncc(F)c2)c1I)SC (centres unmarked) [Example I-02]  pest or weed control at 320 g/ha      90
6  COC(=O)C(Oc1nn(-c2cc(F)ccc2F)c(-c2cncc(F)c2)c1Br)SC (centres unmarked) [Example I-07]  pest or weed control at 320 g/ha      90

Would you kindly look at the next entry?
Param item = CCOC(=O)C(Oc1nn(-c2ccccc2F)c(-c2ccc(F)nc2)c1Br)SC (centres unmarked) [Example I-01] ; retrieve measured pest or weed control at 320 g/ha.
80
